system: IGROV1 ovarian; assay: NCI tumour cell line growth inhibition, 48 h
Measured parameter: TGI

compound="CCCCCCC1NN(C(C)=O)C(CCCCCC)NN1C(C)=O (centres undefined)" measured_parameter=TGI data_value="> 100 µM"
compound=CC(C)c1cc(C(F)(F)F)nc(NNc2nc(C(C)C)cc(C(F)(F)F)n2)n1 measured_parameter=TGI data_value="> 100 µM"
compound="Clc1ccc(C2c3ccccc3-c3nccn32)c(Cl)c1 (centres undefined)" measured_parameter=TGI data_value="> 47.9 µM"
compound=c1cc(-c2ccsc2-c2ccsc2)cs1 measured_parameter=TGI data_value="> 100 µM"
compound=Cn1cc(C2=C(c3cn(CCSC(=N)N)c4ccccc34)C(=O)NC2=O)c2ccccc21 measured_parameter=TGI data_value="9.46 µM"
compound=O=C(O)c1cc(-c2ccc3c(O)ccc(O)c3c2)ccc1O measured_parameter=TGI data_value="31.9 µM"
compound="CC(C)C(Br)CC/C(CBr)=C(\\Cl)CCl (centres undefined)" measured_parameter=TGI data_value="3.64 µM"
compound=COc1cc(-c2cc(=O)c3c(OC)c(OC)c(OC)c(OC)c3o2)cc(OC)c1OC measured_parameter=TGI data_value="> 100 µM"
compound="CCCNC(=O)C(C)(Cl)C(=O)c1ccccc1O (centres undefined)" measured_parameter=TGI data_value="> 100 µM"
compound=O=C(C[Si](CC(=O)c1cccc(C(F)(F)F)c1)CC(=O)c1cccc(C(F)(F)F)c1)c1cccc(C(F)(F)F)c1 measured_parameter=TGI data_value="27.8 µM"
compound=O=c1[nH]nc(Cc2ccccc2)n1/N=C\CC/C=N\n1c(Cc2ccccc2)n[nH]c1=O measured_parameter=TGI data_value="40.7 µM"
compound=COc1cccc2c(Nc3ccc(S(=O)(=O)Nc4ncccn4)cc3)c3ccc([N+](=O)[O-])cc3nc12 measured_parameter=TGI data_value="> 100 µM"
compound=c1ccc2c(c1)SC1=Nc3sc4ccccc4[n+]3CN12 measured_parameter=TGI data_value="46.3 µM"
compound=Cc1cc(C)c2cc(N)c(Cl)nc2n1 measured_parameter=TGI data_value="> 100 µM"
compound="CN(C(=O)c1ccccc1)C1CCCC(=O)CC1 (centres undefined)" measured_parameter=TGI data_value="> 100 µM"
compound="N#Cc1c(-c2ccccc2)c(C#N)c(=S)n(C2OC(CO)C(O)C(O)C2O)c1N (centres undefined)" measured_parameter=TGI data_value="> 100 µM"
compound="O=C1OCC2=C1C(c1cccc(Cl)c1)c1cc3c(cc1N2CCO)OCO3 (centres undefined)" measured_parameter=TGI data_value="> 74.4 µM"
compound=Cc1noc(C)c1C1=CCCCc2ccccc21 measured_parameter=TGI data_value="> 100 µM"
compound="COC(=O)C1CC2C=CC1N(C(=O)OCc1ccccc1)C2 (centres undefined)" measured_parameter=TGI data_value="> 100 µM"
